- target or test system: T1, soluble human FcRn (shFcRn) (human, UniProt P55899 24-297; P61769 21-119)
- T1 construct: Biotinylated for the ELISA, amine-coupled to a CM5 chip for SPR; also called biotinylated shFcRn
- T1 sequence (P55899 24-297 limits assumed, chain 1 of 2): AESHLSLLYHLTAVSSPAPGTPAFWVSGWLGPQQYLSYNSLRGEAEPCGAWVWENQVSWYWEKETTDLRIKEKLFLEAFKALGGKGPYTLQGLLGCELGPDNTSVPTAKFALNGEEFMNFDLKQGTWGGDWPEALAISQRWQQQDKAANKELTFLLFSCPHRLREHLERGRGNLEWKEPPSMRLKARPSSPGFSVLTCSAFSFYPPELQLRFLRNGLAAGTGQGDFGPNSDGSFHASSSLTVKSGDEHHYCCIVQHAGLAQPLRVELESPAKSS
- T1 sequence (P61769 21-119 limits assumed, chain 2 of 2): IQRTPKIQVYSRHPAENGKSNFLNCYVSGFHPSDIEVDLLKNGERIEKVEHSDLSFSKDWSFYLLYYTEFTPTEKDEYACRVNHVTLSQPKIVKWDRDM
- test name: IgG competition ELISA
Numbered stars: 1 amine (or outer) side, 2 acyl side, 3 side chain; on linkers, the order of the positions; unused ones are H or OH. Bridge positions count the residues as written; N and C are the ends. Square brackets hold non-standard residues; d marks the D form. Ends that are not written are not given here. X4 = (3S)‑3‑amino‑2‑oxo‑1‑piperidine‑acetic acid, O=C1[C@@H](N[*:1])CCCN1CC(=O)[*:2]; X2 = (3R)‑3‑amino‑1‑carboxymethyl‑valerolactam, O=C1[C@H](N[*:1])CCCN1CC(=O)[*:2]; X1 = 3‑amino‑2‑oxo‑1‑piperidine‑acetic acid, O=C1C(N[*:1])CCCN1CC(=O)[*:2]; 5,5‑bicyclic dipeptide mimic = not defined here; NMeL = CN[C@@H](CC(C)C)C(=O)O; Pen = CC(C)(S)[C@H](N)C(=O)O; NMeA = CN[C@@H](C)C(=O)O
value type: IC50 (nM)
Give just the numeric value; nM need not be written.

State, in one line, measured IC50 of RF[Pen]TGHFGGLYPC-NH2 (disulfide 3-13; N-terminus assumed; SMILES CC(C)C[C@@H]1NC(=O)CNC(=O)CNC(=O)[C@H](Cc2ccccc2)NC(=O)[C@H](Cc2c[nH]cn2)NC(=O)CNC(=O)[C@H]([C@@H](C)O)NC(=O)[C@@H](NC(=O)[C@H](Cc2ccccc2)NC(=O)[C@@H](N)CCCNC(=N)N)C(C)(C)SSC[C@@H](C(N)=O)NC(=O)[C@@H]2CCCN2C(=O)[C@H](Cc2ccc(O)cc2)NC1=O) [Peptide No. 99]
2000

State, in one line, measured IC50 of RFCTGHFXLYPC (not fully specified; Pen 3; X 8 = 3(S)-3-amino-2-oxo-1-azepine acetic acid in place of Gly-Gly; NMeLeu 9; disulfide 3-12; C-terminal amide) [Peptide No. 239]
620

State, in one line, measured IC50 of RF[Pen]TGHF[X4]LYPC-NH2 (disulfide 3-12; N-terminus assumed; SMILES CC(C)C[C@@H]1NC(=O)CN2CCC[C@H](NC(=O)[C@H](Cc3ccccc3)NC(=O)[C@H](Cc3c[nH]cn3)NC(=O)CNC(=O)[C@H]([C@@H](C)O)NC(=O)[C@@H](NC(=O)[C@H](Cc3ccccc3)NC(=O)[C@@H](N)CCCNC(=N)N)C(C)(C)SSC[C@@H](C(N)=O)NC(=O)[C@@H]3CCCN3C(=O)[C@H](Cc3ccc(O)cc3)NC1=O)C2=O) [Peptide No. 193]
7300

State, in one line, measured IC50 of RF[Pen]TGHF[5,5‑bicyclic dipeptide mimic]LYPC-NH2 (disulfide 3-12; reading uncertain, isomer only in drawing CHEM-US-00084) [Peptide No. 198]
23000

State, in one line, measured IC50 of RFCTGHFXLYPC (not fully specified; Pen 3; X 8 = 3(S)-3-amino-2-oxo-1-pyrrolidine acetic acid in place of Gly-Gly; disulfide 3-12; C-terminal amide) [Peptide No. 214]
2300

State, in one line, measured IC50 of RFCTGHFXLYPC (not fully specified; Pen 3; X 8 = 3(S)-2-amino-2-oxo-1-azepine acetic acid (so in the source) in place of Gly-Gly; disulfide 3-12; C-terminal amide) [Peptide No. 205]
640

State, in one line, measured IC50 of RF[Pen]TGHF[X1]LYPC-NH2 (disulfide 3-12) [Peptide No. 178]
660

State, in one line, measured IC50 of RF[Pen]TGHF[X1]LYPC-NH2 (disulfide 3-12) [Peptide No. 179]
7200

State, in one line, measured IC50 of RF[Pen][NMeA]GHF[X2][NMeL]YPC-NH2 (disulfide 3-12; N-terminus assumed; SMILES CC(C)C[C@H]1C(=O)N[C@@H](Cc2ccc(O)cc2)C(=O)N2CCC[C@H]2C(=O)N[C@H](C(N)=O)CSSC(C)(C)[C@H](NC(=O)[C@H](Cc2ccccc2)NC(=O)[C@@H](N)CCCNC(=N)N)C(=O)N(C)[C@@H](C)C(=O)NCC(=O)N[C@@H](Cc2c[nH]cn2)C(=O)N[C@@H](Cc2ccccc2)C(=O)N[C@@H]2CCCN(CC(=O)N1C)C2=O) [Peptide No. 228]
1100
